testSystem: CFTR ΔF508 mutant (Homo sapiens, UniProt P13569, DEL508-508)
Construct: expressed in transfected cells; host or cells: CFBE41o- (adenoviral transduction)
Sequence (P13569 with tags, fused parts or gaps DEL508-508): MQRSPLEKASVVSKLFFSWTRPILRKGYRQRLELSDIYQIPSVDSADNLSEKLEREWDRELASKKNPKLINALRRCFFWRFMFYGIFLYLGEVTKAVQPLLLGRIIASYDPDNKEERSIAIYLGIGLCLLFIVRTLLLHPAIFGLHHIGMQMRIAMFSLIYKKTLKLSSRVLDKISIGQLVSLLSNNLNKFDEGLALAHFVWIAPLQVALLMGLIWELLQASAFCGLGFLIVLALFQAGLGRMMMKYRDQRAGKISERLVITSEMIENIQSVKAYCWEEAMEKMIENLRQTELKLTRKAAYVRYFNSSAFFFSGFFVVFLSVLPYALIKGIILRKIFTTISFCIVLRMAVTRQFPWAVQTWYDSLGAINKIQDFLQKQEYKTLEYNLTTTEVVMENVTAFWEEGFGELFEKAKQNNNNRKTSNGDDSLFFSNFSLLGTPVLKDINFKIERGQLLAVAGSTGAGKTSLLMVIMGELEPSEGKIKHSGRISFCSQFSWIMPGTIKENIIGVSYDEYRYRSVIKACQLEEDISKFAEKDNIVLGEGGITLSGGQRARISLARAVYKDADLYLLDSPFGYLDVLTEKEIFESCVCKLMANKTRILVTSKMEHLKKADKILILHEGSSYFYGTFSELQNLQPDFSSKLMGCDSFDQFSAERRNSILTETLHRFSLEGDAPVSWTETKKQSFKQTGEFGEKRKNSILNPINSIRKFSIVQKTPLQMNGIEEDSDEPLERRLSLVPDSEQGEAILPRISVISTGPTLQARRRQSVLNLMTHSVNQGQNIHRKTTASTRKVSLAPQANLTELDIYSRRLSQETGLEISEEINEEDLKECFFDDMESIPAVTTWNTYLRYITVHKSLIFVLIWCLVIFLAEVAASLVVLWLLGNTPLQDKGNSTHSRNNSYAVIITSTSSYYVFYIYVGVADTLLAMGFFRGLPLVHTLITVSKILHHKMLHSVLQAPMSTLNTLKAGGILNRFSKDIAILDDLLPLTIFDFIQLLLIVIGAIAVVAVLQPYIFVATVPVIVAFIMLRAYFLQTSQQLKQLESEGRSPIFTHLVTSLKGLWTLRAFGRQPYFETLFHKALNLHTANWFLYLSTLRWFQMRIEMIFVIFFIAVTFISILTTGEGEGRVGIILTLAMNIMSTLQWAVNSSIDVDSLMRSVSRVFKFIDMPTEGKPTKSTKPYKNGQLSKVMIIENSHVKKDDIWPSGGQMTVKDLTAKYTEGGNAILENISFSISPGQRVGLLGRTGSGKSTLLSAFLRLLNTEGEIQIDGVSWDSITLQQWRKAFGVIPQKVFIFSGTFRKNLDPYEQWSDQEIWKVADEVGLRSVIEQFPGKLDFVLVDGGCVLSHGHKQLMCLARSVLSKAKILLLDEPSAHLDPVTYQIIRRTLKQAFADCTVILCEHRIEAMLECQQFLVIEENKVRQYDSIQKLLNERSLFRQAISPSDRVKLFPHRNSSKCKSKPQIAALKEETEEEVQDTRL
assayName: YFP-halide influx assay for the CFTR-ΔF508 mutation, PBS buffer (96 well)
Assay type: cell-based
statedConditions: CFBE41o- cells, forskolin 10.67 μM
Listing of recorded pEC50 by entry.
Notebook: values listed as pEC50 are -log10 of the concentration (mol/L).

Reference set (3 entries):
1) Cc1cccc(C)c1S(=O)(=O)c1cc(C(N)=O)c(NC(=O)C2(O)CC2)s1: 7.68
2) CC(C)(O)C(=O)Nc1sc(S(=O)(=O)c2ccccc2C(F)(F)F)cc1C(N)=O: 7.51
3) COC1CN(S(=O)(=O)c2cc(C(N)=O)c(NC(=O)C3(O)CC3)s2)C1: 5.79

Form field: pEC50 recorded for `CC(C)(CO)C(=O)Nc1sc(S(=O)(=O)N2CCC(F)(F)CC2)cc1C(N)=O` with CFTR ΔF508 mutant (Homo sapiens, UniProt P13569, DEL508-508) (enter value)
6.78

Form field: pEC50 recorded for `COCCN(C1CC1)S(=O)(=O)c1cc(C(N)=O)c(NC(=O)c2ccccc2C(F)(F)F)s1` with CFTR ΔF508 mutant (Homo sapiens, UniProt P13569, DEL508-508) (enter value)
7.50

Form field: pEC50 recorded for `NC(=O)c1cc(S(=O)(=O)c2ccc(F)cc2)sc1Nc1ccccn1` with CFTR ΔF508 mutant (Homo sapiens, UniProt P13569, DEL508-508) (enter value)
6.19

Form field: pEC50 recorded for `CC1(C)COCCN1S(=O)(=O)c1cc(C(N)=O)c(NC(=O)c2ccccc2C(F)(F)F)s1` with CFTR ΔF508 mutant (Homo sapiens, UniProt P13569, DEL508-508) (enter value)
7.03

Form field: pEC50 recorded for `CN(C1CC1)S(=O)(=O)c1cc(C(N)=O)c(NC(=O)C2(O)CC2)s1` with CFTR ΔF508 mutant (Homo sapiens, UniProt P13569, DEL508-508) (enter value)
6.89

Form field: pEC50 recorded for `NC(=O)c1cc(S(=O)(=O)N2CCC(F)(F)CC2)sc1NC(=O)c1c(O)cc(F)cc1F` with CFTR ΔF508 mutant (Homo sapiens, UniProt P13569, DEL508-508) (enter value)
7.43

Form field: pEC50 recorded for `CC(=O)OC(C)(C)C(=O)Nc1sc(S(=O)(=O)c2ccccc2C(C)C)cc1C(N)=O` with CFTR ΔF508 mutant (Homo sapiens, UniProt P13569, DEL508-508) (enter value)
6.64

Form field: pEC50 recorded for `NC(=O)c1cc(S(=O)(=O)c2ccc(F)cc2)sc1NC(=O)C1(O)CC1` with CFTR ΔF508 mutant (Homo sapiens, UniProt P13569, DEL508-508) (enter value)
7.27

Form field: pEC50 recorded for `CN(c1ccc(F)cc1)S(=O)(=O)c1cc(C(N)=O)c(NC(=O)C(C)(C)O)s1` with CFTR ΔF508 mutant (Homo sapiens, UniProt P13569, DEL508-508) (enter value)
7.11

Form field: pEC50 recorded for CC1CN(S(=O)(=O)c2cc(C(N)=O)c(NC(=O)c3ccccc3C(F)(F)F)s2)C(C)(C)CO1 (stereo not shown) with CFTR ΔF508 mutant (Homo sapiens, UniProt P13569, DEL508-508) (enter value)
7.09

Form field: pEC50 recorded for `CC1(C)CN(S(=O)(=O)c2cc(C(N)=O)c(NC(=O)c3cc[nH]n3)s2)C1` with CFTR ΔF508 mutant (Homo sapiens, UniProt P13569, DEL508-508) (enter value)
7.50

Form field: pEC50 recorded for `CC(C)(O)C(=O)Nc1sc(S(=O)(=O)c2ccc(F)cc2Cl)cc1C(N)=O` with CFTR ΔF508 mutant (Homo sapiens, UniProt P13569, DEL508-508) (enter value)
7.34

Form field: pEC50 recorded for COCCOC(C)C(=O)Nc1sc(S(=O)(=O)c2ccc(F)cc2)cc1C(N)=O (stereo not shown) with CFTR ΔF508 mutant (Homo sapiens, UniProt P13569, DEL508-508) (enter value)
6.11

Where these numbers come from: patent US9382254B2
